Assign IC50 to each entry below.
target: human JAK1 (a.a. 837-1142) (Homo sapiens, UniProt P23458); experiment: In vitro JAK kinase assay (HTRF, phosphorylation of biotinylated peptide), JAK1; type: biochemical; conditions: Table F; 1 mM ATP
Sequence (P23458 849-1154): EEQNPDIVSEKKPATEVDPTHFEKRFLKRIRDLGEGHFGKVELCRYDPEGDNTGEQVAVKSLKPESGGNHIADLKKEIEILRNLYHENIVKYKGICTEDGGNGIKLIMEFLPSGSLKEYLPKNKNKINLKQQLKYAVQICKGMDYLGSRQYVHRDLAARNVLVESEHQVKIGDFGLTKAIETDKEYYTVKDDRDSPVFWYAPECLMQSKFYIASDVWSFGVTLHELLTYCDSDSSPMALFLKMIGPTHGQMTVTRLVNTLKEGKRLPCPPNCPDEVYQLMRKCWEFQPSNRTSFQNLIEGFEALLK
Structures can show the parent of a compound that is named as a salt.

// query IC50 value for entry "CNCc1cc(OC2CCN([C@H]3C[C@](CC#N)(n4cc(-c5ncnc6[nH]ccc56)cn4)C3)CC2)nc(C(F)(F)F)c1"
< 10 nM

I am curious: what IC50 value has been reported for "N#CC[C@]1(n2cc(-c3ncnc4[nH]ccc34)cn2)C[C@H](N2CCC(Oc3cc(CO)nc(C(F)(F)F)n3)CC2)C1" ?
10 to 25 nM

Reported IC50, molecule "CN(C)C1(c2cc(C(=O)N3CCN([C@H]4C[C@](CC#N)(n5cc(-c6ncnc7[nH]ccc67)cn5)C4)CC3)nc(C(F)(F)F)n2)CCC1" : ____
< 10 nM

Which IC50 is reported for this molecule? COCc1cc(OC2CCN([C@H]3C[C@](CC#N)(n4cc(-c5ncnc6[nH]ccc56)cn4)C3)CC2)nc(C(F)(F)F)c1 (single isomer, unassigned)
< 10 nM

Query (molecule): N#CC[C@]1(n2cc(-c3ncnc4[nH]ccc34)cn2)C[C@H](N2CCN(C(=O)NCC3CC3)CC2)C1 [Example 92, trifluoroacetate salt] ; field requested: IC50
< 10 nM

State the recorded IC50 for this entry: "CC(C)(C)NCc1cc(OC2CCN([C@H]3C[C@@](CC#N)(n4cc(-c5ncnc6[nH]ccc56)cn4)C3)CC2)nc(C(F)(F)F)c1"
25 to 100 nM

Look up IC50 for this molecule: "CC(C)NC(=O)N1CCN([C@H]2C[C@](CC#N)(n3cc(-c4ncnc5[nH]ccc45)cn3)C2)CC1"
< 10 nM
